Form field: IC50 (one value per entry).
# system name: urokinase (Homo sapiens)
# method description: biochemical
Could you give me the number in µM? Just the number is fine.

smiles	numeric value
CCOC(=O)c1ccc(OC(=O)CCCCCNC(=N)N)cc1	0.146

q: Quick one: give measured IC50 for CC(=O)N[C@@H](CC(C)C)C(=O)N[C@@H](CC(C)C)C(=O)N[C@H](C=O)CCCNC(=N)N
a: 80.7

====

# system name: substance of this invention (plasminogen activator) (Homo sapiens)
# Construct: endogenous in cells
# Sequence (P00750 36-562): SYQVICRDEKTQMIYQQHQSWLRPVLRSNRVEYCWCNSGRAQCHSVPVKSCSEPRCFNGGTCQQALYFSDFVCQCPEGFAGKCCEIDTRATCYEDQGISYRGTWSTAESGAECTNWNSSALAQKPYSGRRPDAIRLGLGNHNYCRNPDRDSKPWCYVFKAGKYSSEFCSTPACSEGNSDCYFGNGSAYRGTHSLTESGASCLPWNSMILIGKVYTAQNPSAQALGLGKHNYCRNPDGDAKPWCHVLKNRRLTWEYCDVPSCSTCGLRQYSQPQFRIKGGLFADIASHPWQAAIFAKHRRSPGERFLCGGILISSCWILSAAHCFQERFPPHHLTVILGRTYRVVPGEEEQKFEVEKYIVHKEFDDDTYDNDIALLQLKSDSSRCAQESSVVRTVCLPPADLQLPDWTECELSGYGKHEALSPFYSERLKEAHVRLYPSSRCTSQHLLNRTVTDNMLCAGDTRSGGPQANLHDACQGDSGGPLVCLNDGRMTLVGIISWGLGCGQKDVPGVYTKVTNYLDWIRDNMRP
# method description: biochemical
recorded metric: pIC50
Scale note: pIC50 = -log10(concentration in M).

smiles	pIC50
CCOC(=O)c1ccc(OC(=O)CCCCCNC(=N)N)cc1	4.89

q: Quick one: give measured pIC50 for CC(=O)N[C@@H](CC(C)C)C(=O)N[C@@H](CC(C)C)C(=O)N[C@H](C=O)CCCNC(=N)N
a: 4.32
